target.under.test: T1, O16-bA
T1 chain: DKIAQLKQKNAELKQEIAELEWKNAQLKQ
test.protocol: two-hybrid library CCNG1;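 note: natural log of median RNA to DNA barcode read ratio; higher means stronger binding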
// assign yes (1) if interaction score falls strictly below -0.2, else no (0) (ties count as no (0))

Item DKIAQLKQKNAELKQEIAELEWKNAQLKQ [O16-bA] : interaction score beneath -0.2, strictly?
yes (1)

Is interaction score of DEIQELKKKIEELERENWELKKKIQELER [4H797-bH] strictly below -0.2?
no (0)
